Entries and their %Inh
Test system: MUSK;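 further: KINOMEscan kinase panel screen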
MEASUREMENT_SETUP: concentration: 1 μM, replicates: in singlicate; n = 1
Give the number; % is assumed, so skip it.

Here are 2 molecules together with their reported answers.
>  <MOLECULE>
CC(=O)c1cccc(NC(=O)NC2CCN(c3ccnc(Nc4ccc(F)cc4)n3)C2)c1 (stereo not shown)

>  <UNITS_LABEL>
%

>  <%Inh>
8

$$$$
>  <MOLECULE>
CS(=O)(=O)CCNCc1nc(-c2ccc3ncnc(Nc4ccc(OCc5ccccc5)c(Cl)c4)c3c2)cs1.Cl

>  <UNITS_LABEL>
%

>  <%Inh>
0

$$$$

Look up %Inh for this molecule: Cc1c(Cn2c3ccccc3n3c(=O)cc(N4CCOCC4)nc23)cccc1C(F)(F)F
6

Find the recorded %Inh belonging to O=c1cc(N2CCOCC2)nc2n(Cc3ccccc3F)ccn12 and report it.
0

For CNCc1ccc2nc(NC(=O)c3ccc(C(C)(C)C)cc3)cn2c1 , what is its reported %Inh?
0

Please look up its %Inh: Fc1ccc(-c2nc3n(c2-c2ccncc2)CCS3)cc1
15

Would you kindly share the measured %Inh for O=C(Nc1n[nH]c2cc(-c3ccsc3)ccc12)C1CC1 ?
11

Give its %Inh value. Item: CC(C)c1ccc(O)cc1Nc1ccnc2ccc(C(F)(F)F)cc12
3

Quick one: %Inh of CS(=O)(=O)CCNCc1nc(-c2ccc3ncnc(Nc4ccc5c(cnn5Cc5ccccc5)c4)c3c2)cs1.Cl.Cl ?
0

// lookup %Inh for CN1c2ccc(-c3ccc(C(N)=O)cc3)cc2-c2[nH]ncc2S1(=O)=O
0

If you can, please state the reported %Inh value of Cn1cncc1-c1cc2c(Nc3ccc(OCc4ccccc4)cc3)ncnc2cn1 .
12

Sample c1ccc(-c2ccnc3[nH]ccc23)cc1 — what was its %Inh?
0

GET /values?readout=%Inh&item= COc1ccc(-c2coc3ccc(-c4nnc(C)o4)cc23)cc1
4

What does the record list as %Inh for COc1ccc(Nc2nccc(NCCNC(=O)Nc3cc(C)ccc3C)n2)cc1 ?
0
